# assayComment: xn = mol fraction of the nth substance listed, in the solute-free solvent
# runParameters: 303.15 K; x2 = 0.7
solubility (g/100 g solution) of 30 or higher: true (1). Under 30: false (0).

compound	categoryLabel
CCCCN1CCCCC1C(=O)Nc1c(C)cccc1C.Cl.O (stereo unspecified) + CO + O	false (0)
CCCCN1CCCCC1C(=O)Nc1c(C)cccc1C.Cl.O (stereo unspecified) + CCO + O	false (0)
CCOC(=O)C1=CC2(CC)CCCN3CCc4c(n1c1ccccc41)C32 (stereo unspecified) + CCO + O	false (0)

-- ask Does solubility (g/100 g solution) meet or surpass 30 for CC1(C)SC2C(NC(=O)C(NC(=O)N3CCNC3=O)c3ccccc3)C(=O)N2C1C(=O)O (stereo unspecified) + CO + CC(C)O ?
-- reply false (0)

-- ask Check this compound for solubility (g/100 g solution) at or above 30: O=c1ccc2ccccc2o1 + CC(C)=O + O
-- reply true (1)
